Each recorded value in this set is attributed to paper PMC11039737.

Target: human Tryptophan 2,3-dioxygenase 2 (hTDO2) (Homo sapiens, UniProt P48775)
Sequence (P48775 whole entry): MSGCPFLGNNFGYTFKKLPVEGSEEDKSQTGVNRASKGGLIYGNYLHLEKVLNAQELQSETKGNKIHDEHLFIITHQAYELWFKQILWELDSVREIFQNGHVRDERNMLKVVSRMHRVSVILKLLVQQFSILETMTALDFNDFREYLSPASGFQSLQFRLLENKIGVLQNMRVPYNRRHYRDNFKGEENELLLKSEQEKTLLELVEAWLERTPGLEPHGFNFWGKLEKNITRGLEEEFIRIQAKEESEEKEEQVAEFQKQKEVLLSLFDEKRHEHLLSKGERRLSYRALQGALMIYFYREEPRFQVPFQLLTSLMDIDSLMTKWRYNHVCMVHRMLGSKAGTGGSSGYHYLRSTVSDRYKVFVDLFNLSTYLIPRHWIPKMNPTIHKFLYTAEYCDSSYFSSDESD
PARAMETER: pIC50
Worth noting: pIC50 values are minus log10 of concentrations stated in mol/L.

Report pIC50 for `O=C(O)C[C@H](O)C[C@H](O)/C=C/c1c(C2CC2)nc2ccccc2c1-c1ccc(F)cc1` please. 6.23
